- ASSAY DETAILS: Plasma concentration of compound after 16 hours of administration of 100 mg/kg through peroral route
- DETAILS: mouse, po
MEASUREMENT TYPE: concentration at 16 h (nM)
Give your result in nM as a bare value.

In: Please look at this compound and report its concentration at 16 h: CN1CCC(Oc2cccc3ncnc(Nc4ccc(OCc5ccccn5)c(Cl)c4)c23)CC1
Out: 2200

###

MEASUREMENT TYPE: pIC50
As a rule, pIC50 stands for the negative log10 of the concentration, concentration in M.

In: Provide pIC50, tested on UniProtKB P00533, for CN1CCC(Oc2cccc3ncnc(Nc4ccc(OCc5cnccn5)c(Cl)c4)c23)CC1 .
Sequence (P00533 whole entry): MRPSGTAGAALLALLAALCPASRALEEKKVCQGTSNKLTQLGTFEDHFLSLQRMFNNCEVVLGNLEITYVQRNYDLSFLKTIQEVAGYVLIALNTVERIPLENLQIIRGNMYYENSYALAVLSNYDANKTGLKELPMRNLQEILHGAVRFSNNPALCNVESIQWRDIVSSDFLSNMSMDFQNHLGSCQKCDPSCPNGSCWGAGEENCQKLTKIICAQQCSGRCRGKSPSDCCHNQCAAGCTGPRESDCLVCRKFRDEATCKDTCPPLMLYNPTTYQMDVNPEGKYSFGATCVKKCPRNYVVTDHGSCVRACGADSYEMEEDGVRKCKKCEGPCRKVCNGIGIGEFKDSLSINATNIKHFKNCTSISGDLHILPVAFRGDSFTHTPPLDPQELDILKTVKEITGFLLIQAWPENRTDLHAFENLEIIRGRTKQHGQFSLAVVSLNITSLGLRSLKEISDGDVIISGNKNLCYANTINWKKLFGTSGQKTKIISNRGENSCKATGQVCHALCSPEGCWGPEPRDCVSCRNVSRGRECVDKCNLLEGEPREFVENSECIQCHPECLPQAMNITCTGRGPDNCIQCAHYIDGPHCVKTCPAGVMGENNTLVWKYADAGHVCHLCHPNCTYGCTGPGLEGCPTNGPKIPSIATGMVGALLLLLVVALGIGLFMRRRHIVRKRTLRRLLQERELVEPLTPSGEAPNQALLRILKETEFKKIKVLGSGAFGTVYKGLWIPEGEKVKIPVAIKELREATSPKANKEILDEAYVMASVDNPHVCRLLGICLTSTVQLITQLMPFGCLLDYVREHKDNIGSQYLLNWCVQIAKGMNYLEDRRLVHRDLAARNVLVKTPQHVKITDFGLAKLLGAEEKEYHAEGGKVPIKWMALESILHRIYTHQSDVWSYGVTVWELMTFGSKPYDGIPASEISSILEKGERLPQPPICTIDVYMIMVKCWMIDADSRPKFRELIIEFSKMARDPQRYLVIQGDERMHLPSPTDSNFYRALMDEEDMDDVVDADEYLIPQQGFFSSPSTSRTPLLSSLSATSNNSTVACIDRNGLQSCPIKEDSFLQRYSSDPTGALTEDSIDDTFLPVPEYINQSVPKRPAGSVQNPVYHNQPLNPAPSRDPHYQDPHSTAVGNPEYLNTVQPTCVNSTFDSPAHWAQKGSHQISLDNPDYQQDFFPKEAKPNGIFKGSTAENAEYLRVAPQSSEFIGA
Out: 6.16

In: Provide pIC50, tested on UniProtKB P00533, for Clc1cc(Nc2ncnc3cccc(OC4CCOCC4)c23)ccc1OCc1ccccn1 .
Out: 5.62

In: Provide pIC50, tested on UniProtKB P00533, for COc1cccc2ncnc(Nc3ccc(OCc4ccccn4)c(Cl)c3)c12 .
Out: 6.36

In: Provide pIC50, tested on UniProtKB P00533, for CN1CCC(Oc2cccc3ncnc(Nc4ccc(OCc5ccccn5)cc4)c23)CC1 .
Out: 5.68

In: Provide pIC50, tested on UniProtKB P00533, for CN1CCC(Oc2cccc3ncnc(Nc4ccc(OCc5cscn5)c(Cl)c4)c23)CC1 .
Out: 6.16

Source listed as ChEMBL document CHEMBL1141048.
